Where do these numbers come from? They come from patent US9145391B2.

# protocol.notes: Hydrolysis assay: hydrolysis of prodrug to parent species in human liver S9
# Type: in vitro ADME
# recorded.conditions: human liver S9 1 mg protein/mL, prodrug 10 μM, 37° C., pH 7.4, 1 mM NADPH
quantity.measured: Half-life (min) of the conversion of the prodrug to the carboxylic acid

[a] COCCOC(=O)[C@H]1CC[C@H](C(C)(O)c2ccc(-c3cc(C)cc(Nc4cc(C(F)F)ccn4)n3)cn2)CC1 (single isomer, unassigned)
[b] CCCCCCCOC(=O)[C@H]1CC[C@H](C(C)(O)c2ccc(-c3cc(C)cc(Nc4cc(C(F)F)ccn4)n3)cn2)CC1 (single isomer, unassigned)
[c] Cc1cc(Nc2cc(C(F)F)ccn2)nc(-c2ccc(C(C)(O)[C@H]3CC[C@H](C(=O)OCCN4CCOCC4)CC3)nc2)c1 (single isomer, unassigned)
[d] Cc1cc(Nc2cc(C(F)F)ccn2)nc(-c2ccc(C(C)(O)[C@H]3CC[C@H](C(=O)OCC(=O)N(C)C)CC3)nc2)c1 (single isomer, unassigned)
Challenge: List items by Half-life (min) of the conversion of the prodrug to the carboxylic acid in falling order. Reply with the labels, ordered as the question asks.
Response given: b, c, d, a
(b: 40 min, c: 15 min, d: 6.2 min, a: 3.9 min)

---

# target.of.assay: recombinant human GST-Syk (Homo sapiens (Human))
# protocol.notes: Homogeneous Time-Resolved Fluorescence (HTRF) assay for the recombinant human Syk enzyme
# recorded.conditions: recombinant human GST-Syk 5 pM, ATP 25 μM, read-out: rhSyk IC50
quantity.measured: IC50 (nM)

CC(=O)Nc1ccc(C(=O)N2CCC(Nc3ccc(-c4cc(C)cc(Nc5cc(C(F)(F)F)ccn5)n4)cn3)CC2)cc1	4
CCOC(=O)OCOC(=O)[C@H]1CC[C@H](C(C)(O)c2ccc(-c3cc(C)cc(Nc4cc(C(F)F)ccn4)n3)cn2)CC1 (single isomer, unassigned)	14
Cc1cc(Nc2cc(C(F)(F)F)ccn2)nc(-c2ccc(N3CCC(NC(=O)OC(C)(C)C)C3)nc2)c1 (stereo not drawn)	248
CC(=O)NC1CCCN(c2ccc(-c3cc(C)cc(Nc4cc(C(F)(F)F)ccn4)n3)cn2)C1 (stereo not drawn)	14
Cc1cc(Nc2cc(C(F)(F)F)ccn2)nc(-c2ccc(NC3CCN(C(=O)CCc4nc5ccccc5s4)CC3)nc2)c1	5
Cc1cc(Nc2cc(C(F)F)ccn2)nc(-c2ccc(C(C)(O)[C@H]3CC[C@H](CO)CC3)nc2)c1 (single isomer, unassigned)	1
COc1cccc(CC(=O)N2CCC(Nc3ccc(-c4cc(C)cc(Nc5cc(C(F)(F)F)ccn5)n4)cn3)CC2)c1	6
Cc1cc(Nc2cc(C(F)(F)F)ccn2)nc(-c2ccc(NC3CCN(C(=O)c4ccccc4Cl)CC3)nc2)c1	21

[P] Cc1cc(Nc2cc(C(F)(F)F)ccn2)nc(-c2ccc(NC3CCN(C(=O)c4cnc5ccccc5c4)CC3)nc2)c1
[Q] Cc1cc(Nc2cc(C(F)(F)F)ccn2)nc(-c2ccc(NC(C)(C)C(=O)O)nc2)c1
Challenge: Looking at P and Q , which one comes out lower in IC50 terms? Field: selected label. Fill in the label of the entry you choose.
Response given: P

---

# target.of.assay: recombinant human GST-Syk (Homo sapiens (Human), UniProt P43405)
# protocol.notes: Homogeneous Time-Resolved Fluorescence (HTRF) assay for the recombinant human Syk enzyme
# recorded.conditions: recombinant human GST-Syk 5 pM, ATP 25 μM, read-out: rhSyk IC50
quantity.measured: IC50 (nM)
Provide the reading as a plain figure in nM.

Cc1cc(Nc2cc(C(F)F)ccn2)nc(-c2ccc(C(C)(C)O)nc2)c1	8

Now look at this one.
Challenge: Item under review: COC(=O)C1CCC(O)(c2ccc(-c3cc(C)cc(Nc4cc(C(F)(F)F)ccn4)n3)cn2)CC1(C)C (single isomer, unassigned) [Example 1-7] . Reported IC50?
Response given: 245
